Measured Kd, listed per entry.
target: T1, human Tim-3 expressed on the cell surface (human, UniProt Q8TDQ0 22-301); assay: flow cytometry, CHO-human Tim-3 cells;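 further: antibodies bound on ice for 60 min, detected by PE anti-human IgG Fc secondary, mean fluorescence intensity fit to one-site specific binding with Hill slope, parental CHO cells as nonspecific control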
T1 construct: also called hTim-3; Human Tim-3 (CHO)
Express your answer in nM, writing the number without its unit.

{"Binder": "h22E11-VK2-28 × h22E11-VH4-30-4 (antibody, V domains shown, Humanized m22E11) VH: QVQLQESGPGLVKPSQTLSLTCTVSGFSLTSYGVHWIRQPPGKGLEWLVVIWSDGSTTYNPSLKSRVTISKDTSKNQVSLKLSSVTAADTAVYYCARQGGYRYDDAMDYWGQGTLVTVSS VL: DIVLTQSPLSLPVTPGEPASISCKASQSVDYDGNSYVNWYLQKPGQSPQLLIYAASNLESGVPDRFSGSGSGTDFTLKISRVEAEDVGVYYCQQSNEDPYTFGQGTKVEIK", "Kd, nM": 0.8}

Let us move to another entry and its Kd.
Prompt: Consider the binder shown here: h22E11-VK1-39 × h22E11-VH4-30-4 (antibody, V domains shown, Humanized m22E11) VH: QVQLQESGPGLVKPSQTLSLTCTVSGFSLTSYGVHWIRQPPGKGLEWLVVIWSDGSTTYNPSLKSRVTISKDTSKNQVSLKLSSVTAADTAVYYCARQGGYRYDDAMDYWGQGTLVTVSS VL: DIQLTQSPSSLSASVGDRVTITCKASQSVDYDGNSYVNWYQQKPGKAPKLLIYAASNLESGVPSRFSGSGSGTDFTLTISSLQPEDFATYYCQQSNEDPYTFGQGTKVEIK What is its recorded Kd?
Completion: 0.7
